Cited source: ChEMBL document CHEMBL3769335

Target: Ribosyldihydronicotinamide dehydrogenase [quinone] (Homo sapiens)
Sequence (P16083 whole entry): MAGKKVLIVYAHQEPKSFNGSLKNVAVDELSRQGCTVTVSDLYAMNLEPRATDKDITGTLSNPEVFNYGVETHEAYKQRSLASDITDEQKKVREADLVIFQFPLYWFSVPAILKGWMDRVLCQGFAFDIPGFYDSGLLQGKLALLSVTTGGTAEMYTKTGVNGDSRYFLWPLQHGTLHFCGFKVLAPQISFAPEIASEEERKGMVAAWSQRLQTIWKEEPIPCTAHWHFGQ
Test: Inhibition of human recombinant NQO2 using DCPIPas substrate and NRH as cofactor measured for 1 min by spectrophotometry in the absence of BSA
endpoint: pIC50
Friendly reminder that pIC50 comes from taking -log10 of the concentration in mol/L.

CC(C)(C)c1ccc(-c2ccc(-c3ccc(C(=N)N)cc3)o2)cc1
6.29

Data request: So what's the measured pIC50 for this one? "CC(=O)O.COc1ccc(-c2ccc(-c3ccc(C(=N)N)cc3)o2)cc1"
Data returned: 6.97

Data request: So what's the measured pIC50 for this one? "CC(=O)O.CC(=O)O.N=C(N)c1ccc(-c2ccc(-c3ccc(C(=N)N)cc3)o2)cc1"
Data returned: 7.46

Data request: So what's the measured pIC50 for this one? "CCc1ccc(-c2ccc(-c3ccc(C(=N)N)cc3)o2)cc1"
Data returned: 6.69
